- Tested on: 786-0
- Assay explanation: NCI tumour cell line growth inhibition, 48 h
The source made the active and inactive calls. No stated cut-off is given here; in the data, active = GI50 up to about 1.1 µM and inactive = higher.
Labels: active, inactive

Compound	Class assignment
O=C(Nc1ccc(Cl)cc1)[C-](C(=O)c1ccc(Br)cc1)[n+]1cccc(-c2ccc(Cl)cc2)n1	inactive
C=CCN(c1cc(OC)c2[nH]c(C(=O)OCC)c(C)c2c1[N+](=O)[O-])S(C)(=O)=O	inactive
CC[C@@]1(O)C(=O)OCc2c1cc1n(c2=O)Cc2c-1nc1ccccc1c2/C=N\NC(=O)CN	active
O=C(O)c1cccc(F)c1C(=O)c1ccc2ccccc2c1	inactive
O=C1CCC(c2ccccc2)(c2ccccc2)CC1	inactive
O=C(O)CCSC(=O)Nc1ccc(/N=N/c2ccccc2)cc1	inactive
Nc1ncnc2c1ccn2C1OC2COP(=O)(O)OC2C1O (configuration not stated)	active
OCCCSc1ccccc1SCCCO	inactive
O=C1C=CC(=O)c2c1cc([N+](=O)[O-])c1ccoc21	inactive
COc1ccc(CCNC(=O)Cc2ccccc2CCO)cc1OC	inactive
C[C@H]1[C@H](C)CC[C@]2(C(=O)O)CCC3(COC(=O)/C=C/c4ccc(O)cc4)C(=CCC4[C@@]5(C)CC[C@H](O)C(C)(C)C5CC[C@]43C)[C@H]12 (some centres not stated)	inactive
Cc1cccc2c1CC(Cc1ccccc1C(=O)O)C2=O (configuration not stated)	inactive
Cc1ccc(C)n2c1nc1ccccc12	inactive
CCOc1ccc(/C=C/C(=O)c2sc(NNC(C)=O)nc2C)cc1	inactive
COc1nc2nccc-2c2occn12	inactive
COc1cc2c(/C=C3/C(=O)Nc4ccc(O)cc43)c(Cl)[nH]c2cc1C	active
Cc1cc(S(=O)(=O)O)c(NC(=O)c2oc3cc(O)ccc3c(=O)c2C)cc1Cl	inactive
CC(=O)OC1[C@@H](OC(C)=O)CN(OCc2ccccc2)C[C@H]1OC(C)=O (some centres not stated)	inactive
COc1ccc(-c2cc(-c3cc(C)cc(Br)c3O)no2)cc1	inactive
O=C1CCC(=O)C12CCc1cccc(O)c12	inactive
COc1ccc(OC)c(/C=C2\CCc3ccccc3C2=O)c1	inactive
COc1cc(/C=C/C(=O)CC(=O)/C=C/c2cc(C)c(O)c(OC)c2)cc(C)c1O	inactive

* * *

- System: NCI-H460
- Assay explanation: NCI tumour cell line growth inhibition, 48 h
Calls of active or inactive are those of the source. Rule as the data show it: active = GI50 up to about 1.1 µM and inactive = higher.
Experimental endpoint: GI50

>>> print(df.to_string())
                                    compound        value_observed
 0  CN(C)c1ccc(Cc2cc3c(O)ccc(O)c3cc(Cc3ccc(N(C)C)cc3)c2=O)cc1    37.4 µM (inactive)
 1    c1ccc(CSc2nnc3c4ccccc4c4ccccc4c3n2)cc1  > 88.3 µM (inactive)
 2       CCOC(=O)c1c[nH]c2c(ccc3ncccc32)c1=O   > 100 µM (inactive)
 3  CCCCNC1CCC2(SCCS2)c2[nH]c3ccccc3c21 (configuration not stated)    33.3 µM (inactive)
 4  COc1ccc2[nH]cc(CN3CCC(CO)(c4ccccc4)CC3)c2c1      30 µM (inactive)
 5  COC(=O)Nc1nc2cc(C(=O)c3ccc[nH]3)ccc2[nH]1     0.596 µM (active)
 6   O=c1cc(-c2ccccc2)[nH]c2ccc(N3CCCC3)cc12    0.0275 µM (active)
 7  COC(=O)CC(C(C(=O)OC)C(=O)OC)N1C(=O)OC(c2ccccc2)C1c1ccccc1 (configuration not stated)    94.2 µM (inactive)
 8  CCOC(=O)Cn1nc2ccc(Nc3nc4ccccc4nc3C(=O)OCC)cc2n1   > 100 µM (inactive)
 9  CCOC(=O)NC(=O)c1cn(CCN2CCNCC2)c(=O)[nH]c1=O   > 100 µM (inactive)
10  COc1cc2c3c(c1OC)C(=O)C=C3N(S(=O)(=O)c1ccc(C)cc1)CC2   > 100 µM (inactive)
11  CCCOC(=O)C1CCC(=O)N1C(=O)C(C)Cl (configuration not stated)   > 100 µM (inactive)
12  O=c1cnn(C2OC(C(O)CO)C(O)C2O)c(=O)[nH]1 (configuration not stated)   > 100 µM (inactive)
13  CC(=O)OC1[C@@H](OC(C)=O)CN(OCc2ccccc2)C[C@H]1OC(C)=O (some centres not stated)   > 100 µM (inactive)
14  Cc1c(C#N)c2nnn(-c3ccc([N+](=O)[O-])cc3)c(=O)n2c1-c1ccccc1    5.86 µM (inactive)
15  CC12OC(=O)C(C#N)C1(C)C1C(=O)CCCC12 (configuration not stated)   > 100 µM (inactive)
16              N=c1oc2c(O)c(O)ccc2cc1C(N)=O   > 100 µM (inactive)
17  CCSCCCCC(c1ccc(O)cc1)C(C)(CC)c1ccc(O)cc1 (configuration not stated)    30.1 µM (inactive)
18      CCOC(=O)C1=C(O)C(=O)c2cc(OC)ccc2C1=O   > 100 µM (inactive)
19                       Cc1c(O)c(=O)ccn1CCN   > 100 µM (inactive)
20  O=C1/C(=C2/C(=O)N(c3ccccc3)c3ccccc32)Nc2ccccc21    46.2 µM (inactive)
21  Nc1ccc(C(=O)c2cn(CCN3CCOCC3)c3ccccc23)c2ccccc12    34.3 µM (inactive)
22  O=C(c1cc(Cl)ccc1Cl)N1CCN(c2ccc(Cl)c(Cl)c2)CC1      17 µM (inactive)
23  C/C=C(\C)C(=O)N1c2ccccc2CC1c1c(C)[nH]c2ccccc12 (configuration not stated)    37.9 µM (inactive)
24              O=C1CCCNn2c(nc3ncccc3c2=O)N1   > 100 µM (inactive)
25  CCOc1ccc(O)cc1[P+](c1ccccc1)(c1ccccc1)c1ccccc1    3.24 µM (inactive)
26      O=C(O)c1cccc(F)c1C(=O)c1ccc2ccccc2c1   > 100 µM (inactive)

* * *

- System: HOP-62
- Assay explanation: NCI tumour cell line growth inhibition, 48 h
The source made the active and inactive calls. Rule as the data show it: active = GI50 up to about 1.1 µM and inactive = higher.
Experimental endpoint: GI50

                                   compound  assayed_target  experimental_endpoint       value_observed
0  CSc1ncnc2c1ncn2C1OC(CO)C(O)OC1O (stereo unspecified)          HOP-62                   GI50    3.7 µM (inactive)
1  COC(=O)[C@H](COC(=O)/C=C/c1ccc(OC(C)=O)c(OC(C)=O)c1)NC(=O)/C=C/c1ccc(OC(C)=O)c(OC(C)=O)c1          HOP-62                   GI50   17.2 µM (inactive)
2  COC(=O)CNC(=O)CNC(=O)CSc1nnc(COc2ccc(Cl)cc2)n1-c1ccccc1          HOP-62                   GI50  > 100 µM (inactive)
3                        OCCCSc1ccccc1SCCCO          HOP-62                   GI50  > 100 µM (inactive)
4  O=C1C2=Cc3ccccc3CCN2c2ccc([N+](=O)[O-])cc21          HOP-62                   GI50  > 100 µM (inactive)
5  CCOC(=O)[C@H]1Nc2ccc(Cl)cc2[C@H]2CCC[C@@H]12          HOP-62                   GI50  > 100 µM (inactive)

* * *

- System: SN12C
- Assay explanation: NCI tumour cell line growth inhibition, 48 h
Active and inactive are the calls of the source. Rule as the data show it: active = GI50 up to about 1.1 µM and inactive = higher.
Labels: label 1 = active, label 0 = inactive

>>> print(df.to_string())
                                   compound  assayed_target  class_assignment
0  Cn1c2c(c3ccccc31)CCN1C(=O)C3SC21C1C(=O)N(c2ccccc2)C(=O)C31 (stereo unspecified)           SN12C           label 0
1  COC1CC(COCc2ccccc2)CC(OC)O1 (stereo unspecified)           SN12C           label 0
2  CCOC(=O)C(=O)/C(=C/NC(=S)Nc1ccc(Cl)c(Cl)c1)C(=O)OCC           SN12C           label 0
3          c1ccc2nc(-c3ccc4c(c3)OCO4)ccc2c1           SN12C           label 0
4  CCN1CCN(c2nc3ccc([N+](=O)[O-])cc3nc2C(=O)c2ccccc2)CC1           SN12C           label 0
5           C/C(=N\NC(=S)N1CCCCCC1)c1ccccn1           SN12C           label 1

* * *

- System: LOX IMVI
- Assay explanation: NCI tumour cell line growth inhibition, 48 h
Active and inactive are the calls of the source. Rule as the data show it: active = GI50 up to about 1.1 µM and inactive = higher.
Labels: yes (1) for active, no (0) for inactive

>>> print(df.to_string())
                                   compound  class_assignment
0  CCOC(=O)c1sc2c(c1OC(=O)c1ccc(Cl)cc1Cl)c(=O)n(-c1ccccc1)c(=S)n2-c1ccccc1            no (0)
1   NC(CCSC(F)F)C(=O)O (stereo unspecified)            no (0)
2    O=C(CCc1ccc(O)c(O)c1)NCCc1cc(O)cc(O)c1            no (0)
3  NC(CC(=O)O)(Cc1ccccc1)C(=O)O (stereo unspecified)            no (0)
4   COc1ccc(-c2cc(-c3cc(C)cc(Br)c3O)no2)cc1            no (0)
5  CSc1ncnc2c1ncn2C1OC(CO)C(O)OC1O (stereo unspecified)           yes (1)
